# measurement description: Selectivity ratio of TD50 for human HPL1A cells to MIC for Cryptococcus neoformans H99S
# Format: toxicity
Where a SMILES comes first, the peptide text is derived from it. [ ]: non-standard residue; d: D form. N(tridecyl)Gly = CCCCCCCCCCCCCNCC(=O)O; Gly(N-2-aminoethyl) = NCCNCC(=O)O; Gly(N-cHex) = O=C(O)CNC1CCCCC1; Nlys = NCCCCNCC(=O)O

{"compound": "CCCCCCCCCCCCCNCC(=O)N(CC(=O)N(CCCCN)CC(=O)N(CCN)CC(=O)N(CC(N)=O)C1CCCCC1)C1CCCCC1 (H-[N(tridecyl)Gly][Gly(N-cHex)][Nlys][Gly(N-2-aminoethyl)][Gly(N-cHex)]-NH2)", "selectivity ratio": 47}

###

# measurement description: Cytotoxicity against human HepG2 cells assessed as cell death measured after 72 hrs by MTT assay
# Type: cell-based
# condition parameters: read-out: TD50
Where a SMILES comes first, the peptide text is derived from it. [ ]: non-standard residue; d: D form. N(tridecyl)Gly = CCCCCCCCCCCCCNCC(=O)O; Gly(N-2-aminoethyl) = NCCNCC(=O)O; Gly(N-cHex) = O=C(O)CNC1CCCCC1; Nlys = NCCCCNCC(=O)O; Sar = CNCC(=O)O
We begin with a simple list: items and their reported CC50 at 72 h.
measurement kind: CC50 at 72 h

{"compound": "CCCCCCCCCCCCCNCC(=O)N(C)CC(=O)N(CCCCN)CC(=O)N(CCN)CC(=O)N(CC(N)=O)C1CCCCC1 (H-[N(tridecyl)Gly][Sar][Nlys][Gly(N-2-aminoethyl)][Gly(N-cHex)]-NH2)", "obs value": "> 200 µg/mL"}
{"compound": "CNCC(=O)N(CC(=O)N(CCCCN)CC(=O)N(CCN)CC(=O)N(CC(N)=O)C1CCCCC1)C1CCCCC1 (H-[Sar][Gly(N-cHex)][Nlys][Gly(N-2-aminoethyl)][Gly(N-cHex)]-NH2)", "obs value": "> 200 µg/mL"}
{"compound": "CCCCCCCCCCCCCNCC(=O)N(CC(=O)N(CCCCN)CC(=O)N(CCN)CC(=O)N(C)CC(N)=O)C1CCCCC1 (H-[N(tridecyl)Gly][Gly(N-cHex)][Nlys][Gly(N-2-aminoethyl)][Sar]-NH2)", "obs value": "> 200 µg/mL"}
